The origin of these recorded values is paper PMC5764323.

# target of assay: human ether-a-go-go-related gene (hERG) channel (Homo sapiens)
# Sequence (Q12809 whole entry): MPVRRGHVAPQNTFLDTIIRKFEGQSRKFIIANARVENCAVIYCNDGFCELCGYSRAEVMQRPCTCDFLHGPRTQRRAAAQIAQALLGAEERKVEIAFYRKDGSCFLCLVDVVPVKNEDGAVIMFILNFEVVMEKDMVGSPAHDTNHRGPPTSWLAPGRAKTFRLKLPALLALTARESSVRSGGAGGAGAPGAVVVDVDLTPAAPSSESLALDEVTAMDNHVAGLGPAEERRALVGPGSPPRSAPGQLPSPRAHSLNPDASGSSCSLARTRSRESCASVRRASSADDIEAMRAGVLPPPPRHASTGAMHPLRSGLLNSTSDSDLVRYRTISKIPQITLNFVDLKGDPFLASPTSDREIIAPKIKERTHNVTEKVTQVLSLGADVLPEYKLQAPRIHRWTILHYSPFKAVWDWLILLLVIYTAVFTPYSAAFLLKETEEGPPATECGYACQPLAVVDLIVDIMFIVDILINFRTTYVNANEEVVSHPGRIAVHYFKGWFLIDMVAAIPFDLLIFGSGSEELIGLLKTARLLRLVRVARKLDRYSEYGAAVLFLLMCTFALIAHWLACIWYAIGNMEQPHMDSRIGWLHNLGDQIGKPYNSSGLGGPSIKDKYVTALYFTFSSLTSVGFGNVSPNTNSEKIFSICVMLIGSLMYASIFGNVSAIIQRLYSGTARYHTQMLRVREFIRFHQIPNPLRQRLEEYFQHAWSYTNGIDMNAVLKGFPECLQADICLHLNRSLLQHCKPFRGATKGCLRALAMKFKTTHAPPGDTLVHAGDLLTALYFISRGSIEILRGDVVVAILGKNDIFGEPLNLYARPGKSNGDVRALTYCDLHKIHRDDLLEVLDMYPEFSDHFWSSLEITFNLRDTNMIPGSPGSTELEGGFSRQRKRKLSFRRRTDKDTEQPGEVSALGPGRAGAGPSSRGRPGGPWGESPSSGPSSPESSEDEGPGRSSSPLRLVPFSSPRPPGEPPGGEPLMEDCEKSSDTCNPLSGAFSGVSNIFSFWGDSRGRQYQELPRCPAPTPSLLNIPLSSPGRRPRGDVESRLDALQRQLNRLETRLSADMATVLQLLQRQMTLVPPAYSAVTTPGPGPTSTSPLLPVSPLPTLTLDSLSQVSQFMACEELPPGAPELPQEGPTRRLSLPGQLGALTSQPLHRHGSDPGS
# assay protocol: whole-cell patch clamp, hERG tail current in HEK-293 cells
Where a name gives a salt, the structure may show the parent alone.
Exercise: for every item that follows, state its recorded pIC50.
On this scale, pIC50 is minus log10 of a concentration expressed in M (mol/L).

State, in one line, measured pIC50 of CCOC(=O)c1cncn1[C@H](C)c1ccccc1 [etomidate]
3.58

State, in one line, measured pIC50 of COCCOC(=O)c1cncn1[C@H](C)c1ccccc1 [ET-26 HCl]
3.13
